Recorded TCS50 values for a group of compounds are listed next.
- Test system: K562
- Measurement notes: Tested for cytotoxicity against human […] leukemia K562 cell line
- Type: functional
Report only the number, with the unit µM understood.

Illustrative cases are given below, each with its answer.
INSERT INTO assay_data (compound, attribute_measured, value_measured) VALUES
  ('C=C(C=O)[C@@H]1CC[C@]2(C(=O)O)CC[C@]3(C)[C@H](CC[C@@H]4[C@@]5(C)CC[C@H](OC(C)=O)C(C)(C)[C@@H]5CC[C@]43C)C12 (some centres undefined)', 'TCS50', 15.12),
  ('COC(=O)[C@@]12CC[C@]3(C)[C@H](CC[C@@H]4[C@@]5(C)CC[C@H](OC(C)=O)C(C)(C)[C@@H]5CC[C@]43C)C1=C(C(C)C)C(=O)C2=O', 'TCS50', 1.85),
  ('C=C(C)[C@@H]1CC[C@]2(C(=O)O)CC[C@]3(C)[C@H](CC[C@@H]4[C@@]5(C)CC[C@H](O)C(C)(C)[C@@H]5CC[C@]43C)[C@@H]12', 'TCS50', 53.9);

Could you now consider this next compound?
QUERY: State the recorded TCS50 for this entry: CC(=O)OC[C@@]1(C(=O)O)CC[C@]2(C)[C@H](CC[C@@H]3[C@@]4(C)CC[C@H](OC(C)=O)C(C)(C)[C@@H]4CC[C@]32C)C1=O
RESULT: 0.19
